This collection of values is drawn from PubChem BioAssay (NCI).

system: COLO 205 colon; test: NCI-60 one-dose screen, 48 h; details: 10 µM unless noted
About 83,000 compounds went through this panel and 20% of them were active in at least one assay; those are over-represented in the sample as a whole. Active and inactive are the calls of the source. Rule for the calls: active = growth percent below 10; inactive = the rest.
Allowed answers: 1 for active, 0 for inactive

Some solved entries appear below for comparison.
>>> print(df.to_string())
                                   molecule  discrete_label
0  O=S(=O)(NCCCNc1cc(-c2c(-c3cccc(O)c3)nc3sccn23)ccn1)c1cccc(Cl)c1               0
1  O=C(NCCCNc1cc(-c2cn(-c3ccccc3)nc2-c2cccc(O)c2)ccn1)c1ccccc1               1
2  C=C(C)[C@@H]1CC[C@]2(C(=O)NC3CCCCC3)CC[C@]3(C)[C@H](CC[C@@H]4[C@@]5(C)CCC(=O)C(C)(C)[C@@H]5CC[C@]43C)[C@@H]12               0
3  COC(=O)/C=C1\S/C(=N\NS(=O)(=O)c2ccc(C)cc2)N(c2ccccc2)C1=O               0
4  COc1ccc(-c2ccc3c(c2)sc2nc(-c4ccc(F)cc4)cn23)cc1               1

For the next question, use this molecule.
## Input # fetch the recorded call for CCC1(C2CCCC2)NC(=O)NC1=O (stereo unspecified) here
## Output 0
